# testDetails: Cytotoxicity against human MT4 cells by MTT assay
# Type: cell-based
Reported CC50 values for the following compounds.
Answer in µg/mL, number only, no unit symbol.

entrySmiles	assayMetric	testValue
C=CCNC(=S)Nc1ccc(-c2n[nH]c(=S)n2C)cc1	CC50	78.2

Q. I would be grateful if you could share the reported CC50 for C=CCn1c(-c2ccc(NC(=S)NC)cc2)n[nH]c1=S .
A. 80.9

Q. I would be grateful if you could share the reported CC50 for S=C(Nc1ccccc1)Nc1ccc(OCc2n[nH]c(=S)n2-c2ccccc2)cc1 .
A. 44.1

Q. I would be grateful if you could share the reported CC50 for CCNC(=S)Nc1ccc(-c2n[nH]c(=S)n2-c2ccccc2)cc1 .
A. 91.3

Q. I would be grateful if you could share the reported CC50 for C=CCNC(=S)Nc1ccc(-c2nnc(SCc3ccc(Cl)cc3Cl)n2-c2ccccc2)cc1 .
A. 65.3

Q. I would be grateful if you could share the reported CC50 for C=CCn1c(-c2ccc(NC(=S)Nc3ccccc3)cc2)n[nH]c1=S .
A. 19.4

Q. I would be grateful if you could share the reported CC50 for CNC(=S)Nc1ccc(-c2nnc(SCc3ccccc3)n2C)cc1 .
A. 75.4
